I'd be grateful if you could share measured GI50 for these entries.
test system: M14; assay: NCI tumour cell line growth inhibition, 48 h
Activity calls are given as the source filed them. Cut-off read from the data, not from the text of the source: active = GI50 up to about 1.1 µM and inactive = higher.

# count of solved cases: 2
Ask: Identify the reported GI50 for the following entry. Cc1ccc(-n2cc(-c3ccc(Cl)cc3)c3c(=N)n(N)cnc32)cc1
Result: 5.75 µM (inactive)

Ask: Identify the reported GI50 for the following entry. C1=CC=C2NCCOCC/N=C3/C=CC=CC=C3NCCOCC/N=C\2C=C1
Result: 17.8 µM (inactive)

Dear colleague, could you please provide GI50 for the molecules listed below?
1. CC(C)CNC(=O)Cn1c2c(c3ccccc31)CCCC2
2. COc1ccc2cc1Oc1ccc(cc1)C[C@@H]1c3cc(c(OC)cc3CCN1C)Oc1c(OC)c(OC)cc3c1[C@H](C2)N(C)CC3
3. CN(Cc1cnc2nc(N)nc(N)c2n1)c1ccc(C(=O)NC(CCC(=O)NCCC(P(=O)(O)O)P(=O)(O)O)C(=O)O)cc1 (stereo unspecified)
4. c1ccc2c(c1)ncn2CCn1ccnc1

Result:
1. > 100 µM (inactive)
2. 11.1 µM (inactive)
3. 4.85 µM (inactive)
4. > 100 µM (inactive)

====

system: OVCAR-8; assay: NCI tumour cell line growth inhibition, 48 h
Activity calls are given as the source filed them. Cut-off read from the data, not from the text of the source: active = GI50 up to about 1.1 µM and inactive = higher.
I'd be grateful if you could share measured GI50 for these entries.

Ask: Identify the reported GI50 for the following entry. CO/C(C)=N/CCC1=CCCCC1
Result: > 100 µM (inactive)

Ask: Identify the reported GI50 for the following entry. CC[N+](CC)(CC)/C(=N\S(=O)(=O)c1ccc(Cl)cc1)[N-]S(=O)(=O)c1cc(C)c(Cl)cc1S
Result: > 100 µM (inactive)

Ask: Identify the reported GI50 for the following entry. C#C[C@H]1CCCCCC1O (stereo partly specified)
Result: > 100 µM (inactive)

Ask: Identify the reported GI50 for the following entry. O=C1C=CC(O)(C#CCO)C=C1
Result: 13.3 µM (inactive)

Dear colleague, could you please provide GI50 for the compounds listed below?
1. O=C(/C=C/c1ccc2c(c1)OCO2)Cc1nc2ccccc2[nH]c1=O
2. CS(=O)(=O)c1ccc(C(=O)O[C@@H]2C(=O)N3CC[C@H]4OC(O)[C@@H]2[C@H]43)cc1 (stereo partly specified)

Result:
["28.5 µM (inactive)", "> 100 µM (inactive)"]

====

test system: DU-145; assay: NCI tumour cell line growth inhibition, 48 h
Active and inactive are the calls of the source. Cut-off read from the data, not from the text of the source: active = GI50 up to about 1.1 µM and inactive = higher. Bridge positions count the residues as written; N and C are the ends. Square brackets hold non-standard residues; d marks the D form. Peptide text beside a SMILES is read from it. * marks the point of attachment. Cbz = O=C(OCc1ccccc1)*; Dab = NCC[CH](N)C(=O)O; Bn = c1ccc(C*)cc1
I'd be grateful if you could share measured GI50 for these entries.

# count of solved cases: 4
Ask: Identify the reported GI50 for the following entry. O=C1c2ccccc2C(=O)c2c(NCCCN3CCOCC3)ccc(NCCCN3CCOCC3)c21
Result: < 0.01 µM (active)

Ask: Identify the reported GI50 for the following entry. CC(C)CC1NC(=O)C(Cc2ccccc2)NC(=O)C(Cc2ccccc2)NC(=O)C(NC(=O)C(Cc2ccc(OCc3ccccc3)cc2)NC(=O)OCc2ccccc2)CCNC1=O (centres undefined) (Cbz-Y(Bn)[Dab]FFL; lactam 2-C; configuration not given here)
Result: > 100 µM (inactive)

Ask: Identify the reported GI50 for the following entry. Cn1cc(NC(=O)Nc2cc(C(=O)Nc3cc(C(=O)Nc4ccc5cc(S(=O)(=O)O)cc(S(=O)(=O)O)c5c4)n(C)c3)n(C)c2)cc1C(=O)Nc1cc(C(=O)Nc2ccc3cc(S(=O)(=O)O)cc(S(=O)(=O)O)c3c2)n(C)c1
Result: > 100 µM (inactive)

Ask: Identify the reported GI50 for the following entry. COc1cc([C@@]23OC[C@@H]4[C@@H](OC[C@@H]42)c2cc4c(cc23)OCO4)cc(OC)c1OC
Result: < 0.01 µM (active)

Dear colleague, could you please provide GI50 for the compounds listed below?
1. COC(=O)C1=Cc2cc(OC)c(O)cc2[C@@H](c2ccc(O)c(OC)c2)[C@@H]1C(=O)OC
2. O=c1[nH]nc(-c2ccccc2)n1/N=C/c1ccco1
3. CCSc1c2cc(OC)ccc2nc2ccc(OC)cc12
4. C=CCCCC1CCCNC1=S (centres undefined)

Result:
> 100 µM (inactive)
> 100 µM (inactive)
18.2 µM (inactive)
> 100 µM (inactive)

Ask: Identify the reported GI50 for the following entry. COC(=O)[C@]12CC3C=CC1N(C3)C(CBr)c1c2n(S(=O)(=O)c2ccccc2)c2ccccc12 (some centres undefined)
Result: > 100 µM (inactive)
